Cited source for all entries: patent US12692274B2

Tested on: NQO1 activation in BEAS-2B cells
assay.explanation: BEAS-2B cellular MTT assay of NQO1 activation, 0.3% HSA
Type: cell-based
test.conditions: Homo sapiens, BEAS+, read-out: BEAS+ EC50
Hi there, I'd appreciate the recorded log10(EC50) for every entry that follows.
A value of 2 here means EC50 of 100 in nM, since values are log10.

[Q] Supply reported log10(EC50) belonging to this compound: O=C(O)CC1c2ccc(cc2)OCCCCCCOc2ccc(cc2)C(=O)N2CCc3ccc1cc3C2 (stereo not shown) [Compound 391]
[A] 3.31

[Q] Supply reported log10(EC50) belonging to this compound: Cc1cc2ccc1C(=O)N1CCc3ccc(cc3C1)C(CC(=O)O)c1ccc3c(c1)nnn3CCCCCO2 (stereo not shown) [Compound 330]
[A] 2.94

[Q] Supply reported log10(EC50) belonging to this compound: C[C@@H](C(=O)O)[C@@H]1c2ccc(nc2)OCCCCCc2cc(F)c(c(F)c2)C(=O)N2CCc3ccc1cc3C2 [Compound 164]
[A] 1.51

[Q] Supply reported log10(EC50) belonging to this compound: C[C@@H](C(=O)O)[C@H]1c2ccc3c(c2)CN(CC3)C(=O)c2ccc(cc2)OCCCCCn2nnc3cc1ccc32 [Compound 232]
[A] 0.95

[Q] Supply reported log10(EC50) belonging to this compound: Cc1c2cnc3c1nnn3CCCCCCOc1ccc(c(F)c1)C(=O)N1CCc3ccc(cc3C1)C2CC(=O)O (stereo not shown) [Compound 222]
[A] 1.68

[Q] Supply reported log10(EC50) belonging to this compound: Cc1c2ccc3c1nnn3CCCCCCc1ccc3nc(n(C)c3c1)C(=O)N1CCc3ccc(cc3C1)C2CC(=O)O (stereo not shown) [Compound 192]
[A] 2.06

[Q] Supply reported log10(EC50) belonging to this compound: Cc1c2ccc3c1nnn3CCCCCCOc1ccc(cc1)C(=O)N1CCc3ccc(cc3C1)[C@H]2[C@H](C)C(=O)O [Compound 159]
[A] 2.66

[Q] Supply reported log10(EC50) belonging to this compound: O=C(O)CC1c2ccc3c(c2)CN(CC3)C(=O)c2c(F)cc(cc2F)CCCCCCn2nnc3cc1ccc32 (stereo not shown) [Compound 243]
[A] 1.86

[Q] Supply reported log10(EC50) belonging to this compound: O=C(O)CC1c2ccc3c(c2)CN(CC3)C(=O)c2ncc(cc2F)CCCCCn2nnc3c(Cl)c1ccc32 (stereo not shown) [Compound 215]
[A] 2.54

[Q] Supply reported log10(EC50) belonging to this compound: O=C(O)CC1c2ccc3c(c2)CN(CC3)C(=O)c2ccc(cc2F)CCCCCn2nnc3c(Cl)c1ccc32 (stereo not shown) [Compound 145]
[A] -0.40

[Q] Supply reported log10(EC50) belonging to this compound: Cc1cc2ccc1C(=O)N1CCc3ccc(cc3C1)C(CC(=O)O)c1ccc(nc1)OCCCCCCO2 (stereo not shown) [Compound 301]
[A] 2.50

[Q] Supply reported log10(EC50) belonging to this compound: O=C(O)CC1c2cnc(nc2)OCCCCCc2cc(F)c(c(F)c2)C(=O)N2CCc3ccc1cc3C2 (stereo not shown) [Compound 246]
[A] 3.00

[Q] Supply reported log10(EC50) belonging to this compound: Cc1cc2ccc1C(=O)N1CCc3ccc(cc3C1)C(CC(=O)O)c1ccc3c(nnn3CCCCCO2)c1C (stereo not shown) [Compound 335]
[A] 1.56

[Q] Supply reported log10(EC50) belonging to this compound: Cc1cc2ccc1C(=O)N1CCc3ccc(cc3C1)C(CC(=O)O)c1ccc(nc1C)OCCCCO2 (stereo not shown) [Compound 178]
[A] 3.15

[Q] Supply reported log10(EC50) belonging to this compound: Cc1cc2ccc1C(=O)N1CCc3ccc(cc3C1)[C@@H]([C@H](C)C(=O)O)c1ccc3c(c1)nnn3CCCCCCO2 [Compound 294]
[A] 2.91

[Q] Supply reported log10(EC50) belonging to this compound: Cc1c2ccc3c1nnn3CCCCCc1ccc(cc1)C(=O)N1CCc3ccc(cc3C1)[C@H]2CC(=O)O [Compound 286]
[A] 1.65

[Q] Supply reported log10(EC50) belonging to this compound: Cc1c2ccc3c1nnn3CCCCCCOc1ccc(c3ccccc13)C(=O)N1CCc3ccc(cc3C1)C2CC(=O)O (stereo not shown) [Compound 284]
[A] 1.36

[Q] Supply reported log10(EC50) belonging to this compound: Cc1c2ccc3c1nnn3CCCCCCOc1cnc(cn1)C(=O)N1CCc3ccc(cc3C1)C2CC(=O)O (stereo not shown) [Compound 379]
[A] 2.31

[Q] Supply reported log10(EC50) belonging to this compound: O=C(O)CC1c2ccc3c(c2)CN(CC3)C(=O)c2ccc(cc2Cl)OCCCCCCn2nnc3cc1ccc32 (stereo not shown) [Compound 305]
[A] 2.81

[Q] Supply reported log10(EC50) belonging to this compound: Cc1c2ccc3c1nnn3CCCCCCn1cc(c3ccccc31)C(=O)N1CCc3ccc(cc3C1)C2CC(=O)O (stereo not shown) [Compound 373]
[A] 3.31

[Q] Supply reported log10(EC50) belonging to this compound: O=C(O)CC1c2ccc3c(c2)CN(CC3)C(=O)c2ccc(cc2)CCCCCn2nnc3cc1ccc32 (stereo not shown) [Compound 276]
[A] 1.69

[Q] Supply reported log10(EC50) belonging to this compound: COc1cc2ccc1C(=O)N1CCc3ccc(cc3C1)C(CC(=O)O)c1ccc3c(nnn3CCCCC2)c1C (stereo not shown) [Compound 191]
[A] 1.31

[Q] Supply reported log10(EC50) belonging to this compound: Cc1cc2cc(C)c1C(=O)N1CCc3ccc(cc3C1)C(CC(=O)O)c1ccc3c(c1)nnn3CCCCCCO2 (stereo not shown) [Compound 293]
[A] 2.32

[Q] Supply reported log10(EC50) belonging to this compound: Cc1c2cnc3c1nnn3CCCCCCc1ccc(cc1)C(=O)N1CCc3ccc(cc3C1)[C@H]2CC(=O)O [Compound 140]
[A] 1.48

[Q] Supply reported log10(EC50) belonging to this compound: Cc1c2ccc3c1nnn3CCCCCCc1ccc3c(c1)nc(n3C)C(=O)N1CCc3ccc(cc3C1)C2CC(=O)O (stereo not shown) [Compound 206]
[A] 1.95
